# key: entry, value: abundance fitness
B1: Formin-binding protein 4, residues 200 to 261; numbered along this chain, Q8N3X1 (parent)
chain: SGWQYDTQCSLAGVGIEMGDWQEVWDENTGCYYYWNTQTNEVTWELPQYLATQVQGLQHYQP

- Variants of: B1
- experimentalDetails: abundance fitness (aPCA) (normalised: wild type 0, dead -1); higher = more abundant; growth selection in yeast, the domain comes from the species named
- conditionSummary: Homo sapiens
Respond with the number and no other words.

| mutationCode | abundance fitness |
| --- | --- |
| D6Y | -0.644 |

Item `C31Y` has what recorded abundance fitness?
-0.063

And `G13Q` ?
-0.197

What would you report for `A12S` ?
-0.068

What do you get for `L50Q` ?
-0.7

Would you kindly repeat that for `T29M` ?
-0.1

Can you handle `Q58A` next?
-0.019

Try `Q53L` next.
-0.457

Then this variant: `V14M`
-0.028

Follow-up item: `D20L`
-0.383

Okay, and `Q48C` ?
-0.147

Query `Y60C` next
0.035

What do you have for `H59M` ?
0.082

Likewise for `T52W` ?
-0.295

Also `N36W` , if possible.
-0.814

Then this variant: `W25D`
-0.252

Now the same for `D20E`
-0.162
